# Test system: U-251
# Method notes: NCI tumour cell line growth inhibition, 48 h
Activity calls are given as the source filed them. No stated cut-off is given here; in the data, active = GI50 up to about 1.1 µM and inactive = higher.
Measured metric: GI50

Query string: Give its GI50 value. Item: CC(=O)O[C@H]1CC[C@@]2(C)C(CC[C@]3(C)C2CC[C@]2(C)Oc4c(C)cc(O)cc4C[C@@H]23)C1(C)C (stereo not given in full)
Result string: 2.71 µM (inactive)

Query string: Give its GI50 value. Item: CC(=O)NC1(C)C(C)C2CC1C(C)C2(C)C (stereo not given)
Result string: > 100 µM (inactive)

Query string: Give its GI50 value. Item: N=C(CSS(=O)(=O)O)NC1CC2CCC1C2 (stereo not given)
Result string: 57.8 µM (inactive)

Query string: Give its GI50 value. Item: `O=C(O)/C(=C/c1ccccc1[N+](=O)[O-])c1ccccc1`
Result string: > 100 µM (inactive)

Query string: Give its GI50 value. Item: COc1cc(C2C(Cl)C(=O)N2NC(=O)c2ccc(N)cc2)cc(Br)c1O (stereo not given)
Result string: 3.31 µM (inactive)
